assayed-system: T1, Aβ peptide (β-amyloid peptide; form and length not stated for the assay) (UniProt P05067 672-713)
T1 construct: also called beta amyloid peptide
method: BIAcore, Langmuir model (global analysis)
Rule: measured koff below 0.003 s⁻¹ gets met; anything equal to or greater than 0.003 s⁻¹ gets not met.

binder	category
humanized 12A11 version 2 (antibody, V domains shown, V region subcloned into heavy chain expression vector pCMV-Cgamma1 (human γ1); also called h12A11v2) VH: QVQLVESGGGVVQPGRSLRLSCAFSGFTLSTSGMSVGWIRQAPGKGLEWVAHIWWDDDKYYNPSLKSRFTISKDTSKNTLYLQMNSLRAEDTAVYYCARRTTTADYFAYWGQGTTVTVSS VL: DVVMTQSPLSLPVTPGEPASISCRSSQSIVHSNGNTYLEWYLQKPGQSPQLLIYKVSNRFSGVPDRFSGSGSGTDFTLKISRVEAEDVGVYYCFQSSHVPLTFGQGTKLEIK	not met

Does humanized 12A11 version 3 (antibody, V domains shown, Variable regions only; made like version 2; also called h12A11v3; humanized 12A11 v3) VH: QVQLVESGGGVVQPGRSLRLSCAFSGFTLSTSGMSVGWIRQAPGKGLEWVAHIWWDDDKYYNPSLKSRFTISRDNSKNTLYLQMNSLRAEDTAVYYCARRTTTADYFAYWGQGTTVTVSS VL: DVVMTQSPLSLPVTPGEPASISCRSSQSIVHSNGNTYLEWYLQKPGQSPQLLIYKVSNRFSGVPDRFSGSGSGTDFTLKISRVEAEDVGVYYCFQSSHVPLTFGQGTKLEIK have koff strictly under 0.003 s⁻¹? not met

Does humanized 12A11 version 2.1 (antibody, V domains shown, Variable regions only; made like version 2; also called h12A11v2.1) VH: QVQLVESGGGVVQPGRSLRLSCAFSGFTLSTSGMSVGWIRQAPGKGLEWVAHIWWDDDKYYNPSLKSRFTISKDNSKNTLYLQMNSLRAEDTAVYYCARRTTTADYFAYWGQGTTVTVSS VL: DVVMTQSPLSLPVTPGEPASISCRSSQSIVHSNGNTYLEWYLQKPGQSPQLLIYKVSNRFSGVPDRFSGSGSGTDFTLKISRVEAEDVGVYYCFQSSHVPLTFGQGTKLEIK have koff strictly under 0.003 s⁻¹? met

Does humanized 12A11 version 1 (antibody, V domains shown, Variable regions only tied to the tested antibody; also called h12A11v1; humanized 12A11 v1) VH: QVQLVESGGGVVQPGRSLRLSCAFSGFSLSTSGMSVGWIRQAPGKGLEWLAHIWWDDDKYYNPSLKSRLTISKDTSKNTVYLQMNSLRAEDTAVYYCARRTTTADYFAYWGQGTTVTVSS VL: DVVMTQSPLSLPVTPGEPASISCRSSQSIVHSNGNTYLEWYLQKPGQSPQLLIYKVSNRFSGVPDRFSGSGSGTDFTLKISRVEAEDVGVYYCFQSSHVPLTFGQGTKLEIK have koff strictly under 0.003 s⁻¹? met

Does humanized 12A11 version 3.1 (antibody, V domains shown, Variable regions only tied to the tested antibody; also called h12A11v3.1; humanized 12A11 v3.1) VH: QVQLVESGGGVVQPGRSLRLSCAFSGFTLSTSGMSVGWIRQAPGKGLEWLAHIWWDDDKYYNPSLKSRFTISKDNSKNTLYLQMNSLRAEDTAVYYCARRTTTADYFAYWGQGTTVTVSS VL: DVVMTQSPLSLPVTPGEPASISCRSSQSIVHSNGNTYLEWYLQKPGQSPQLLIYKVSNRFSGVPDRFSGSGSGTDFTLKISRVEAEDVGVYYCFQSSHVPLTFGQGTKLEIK have koff strictly under 0.003 s⁻¹? not met
